tgt: 15-PGDH (Homo sapiens)
Construct: 15-PGDH is highly expressed in resting human lung adenocarcinoma cells (A549); endogenous in cells; host or cells: A549
test-description: A549 cell based assay: PGE2 in supernatant after IL-1β (HTRF)
condition-notes: A549 cells; fold induction of PGE2, IL-1β plus test article versus IL-1β only; 0.1 μM
So basically, if PGE2 - HTRF over IL-β induction at 0.1 μM comes in under 3 it's yes, and if it's 3 or more it's no.

Example entries begin here.
> print(dat)
                                   molecule  class
1  O=C(c1cnc2c(ccn2-c2ccc(-n3cnnc3)cc2)c1)N1CCC(F)(F)CC1 [Compound B-107]    yes
2  COC(=O)Nc1cncc(-n2ccc3cc(C(=O)N4CCCC(F)(F)C4)cnc32)c1 [Compound B-82]     no
3  CCC1CCCN(C(=O)c2cnc3c(ccn3-c3cncc(NC(=O)OC)c3)c2)C1 (stereo not shown) [Compound B-83]    yes
4  O=C(Nc1cncc(-n2ccc3cc(C(=O)N4CCC(F)(F)CC4)cnc32)c1)C1CCOCC1 [Compound B-232]    yes
5  O=C(c1cnc2c(ccn2-c2ccc3nc(N4CCOCC4)nn3c2)c1)N1CCC(F)(F)CC1 [Compound B-97]     no

Q. Here's an entry: CCC1CCCN(C(=O)c2cnc3c(ccn3-c3ccc(N4CCOC4=O)nc3)c2)C1 (stereo not shown) [Compound B-113] . Is its PGE2 - HTRF over IL-β induction at 0.1 μM below 3?
A. no

Q. Here's an entry: O=C(c1cnc2c(ccn2-c2ccc(N3CCOC3=O)nc2)c1)N1CCC[C@H](C(F)(F)F)C1 [Compound B-80] . Is its PGE2 - HTRF over IL-β induction at 0.1 μM below 3?
A. yes

Q. Here's an entry: O=C(c1cnc2c(ccn2-c2ccc(-c3nc[nH]n3)s2)c1)N1CCC(F)(F)CC1 [Compound B-119] . Is its PGE2 - HTRF over IL-β induction at 0.1 μM below 3?
A. yes

Q. Here's an entry: O=C(c1cnc2c(ccn2-c2cccc(-c3nc[nH]n3)c2)c1)N1CCC(F)(F)CC1 [Compound B-36] . Is its PGE2 - HTRF over IL-β induction at 0.1 μM below 3?
A. no

Q. Here's an entry: C[C@H]1CCCN(C(=O)c2cnc3c(ccn3-c3cnn(CC(F)(F)F)c3)c2)C1 [Compound B-100] . Is its PGE2 - HTRF over IL-β induction at 0.1 μM below 3?
A. no

Q. Here's an entry: O=C(Nc1cncc(-n2ccc3cc(C(=O)N4CCC(F)(F)CC4)cnc32)c1)C1CCCC1 [Compound B-234] . Is its PGE2 - HTRF over IL-β induction at 0.1 μM below 3?
A. no

Q. Here's an entry: C[C@H]1CCCN(C(=O)c2cnc3c(ccn3-c3ccc4nc(N(C)C)nn4c3)c2)C1 [Compound B-108] . Is its PGE2 - HTRF over IL-β induction at 0.1 μM below 3?
A. no

Q. Here's an entry: O=C(Nc1cncc(-n2ccc3cc(C(=O)N4CCC(F)(F)CC4)cnc32)c1)C1CCC1 [Compound B-236] . Is its PGE2 - HTRF over IL-β induction at 0.1 μM below 3?
A. no

Q. Here's an entry: Cc1nc2ccc(-n3ccc4cc(C(=O)N5CCC(F)(F)CC5)cnc43)cn2n1 [Compound B-120] . Is its PGE2 - HTRF over IL-β induction at 0.1 μM below 3?
A. no

* * *

tgt: 15-PGDH/HPGD (Homo sapiens, UniProt P15428)
Sequence (P15428 whole entry): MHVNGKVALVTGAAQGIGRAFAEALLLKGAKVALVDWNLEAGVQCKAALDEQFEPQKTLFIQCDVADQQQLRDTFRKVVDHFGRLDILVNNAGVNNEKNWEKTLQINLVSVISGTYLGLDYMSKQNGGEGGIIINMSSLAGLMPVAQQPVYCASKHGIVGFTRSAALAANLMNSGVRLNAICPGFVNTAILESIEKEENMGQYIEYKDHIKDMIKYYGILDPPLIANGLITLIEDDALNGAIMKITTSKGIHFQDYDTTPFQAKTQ
test-description: hPGDH inhibitor screening biochemical assay
condition-notes: 10 nM enzyme, 15 μM PGE2, 0.25 mM NAD, fluorescence ex/em 340/485 nm
For each entry below, report its IC50 value.

# count of solved cases: 2
> print(dat)
                           molecular.string                                       tgt  observed
1  C[C@@]1(O)CCCN(C(=O)c2cnc3c(ccn3-c3ccc(-c4nnc[nH]4)cc3)c2)C1  15-PGDH/HPGD (Homo sapiens, UniProt P15428)  < 100 nM
2  O=C(c1cnc2c(ccn2-c2cnn(CC(F)(F)F)c2)c1)N1CCCC(F)(F)C1  15-PGDH/HPGD (Homo sapiens, UniProt P15428)  < 100 nM

As a next step, examine the molecule that follows.
Q. Supply IC50 value. Item: O=C(c1cnc2c(ccn2-c2ccc(N3CCNC3=O)nc2)c1)N1CCC(F)(F)CC1
A. < 100 nM

* * *

tgt: 15-PGDH/HPGD (Homo sapiens)
test-description: hPGDH inhibitor screening biochemical assay
condition-notes: 10 nM enzyme, 15 μM PGE2, 0.25 mM NAD, fluorescence ex/em 340/485 nm
measured-property: IC50

# count of solved cases: 3
> print(dat)
                                   compound        observed
1  C[C@H]1CCCN(C(=O)c2cnc3c(ccn3-c3ccc(C(=O)O)cc3)c2)C1        < 100 nM
2  O=C(c1cnc2c(ccn2-c2cnn(CC(F)(F)F)c2)c1)N1CCCC(C(F)(F)F)C1 (stereo not shown)  100 to 1000 nM
3  O=C(c1cnc2c(ccn2-c2ccc(-c3nnc[nH]3)c(Cl)c2)c1)N1CC[S+]([O-])CC1  100 to 1000 nM

As a next step, examine the compound that follows.
Q. Supply IC50 value. Item: Nc1nnc(-c2ccc(-n3ccc4cc(C(=O)N5CCCC(F)(F)C5)cnc43)cc2)[nH]1
A. < 100 nM

* * *

For each entry below, report its PGE2 - HTRF over IL-β induction at 0.01 μM value.
tgt: 15-PGDH (Homo sapiens, UniProt P15428)
Construct: 15-PGDH is highly expressed in resting human lung adenocarcinoma cells (A549); endogenous in cells; host or cells: A549
test-description: A549 cell based assay: PGE2 in supernatant after IL-1β (HTRF)
condition-notes: A549 cells; fold induction of PGE2, IL-1β plus test article versus IL-1β only; 0.01 μM
Method: Cell Based Assay: 15-PGDH is highly expressed in resting human lung adenocarcinoma cells (A549) (Tong et al., 2006), and this cell line was used to assess 15-PGDH inhibition by MF-300Na in vitro. In this assay, A549 cells are treated with interleukin (IL) 1β, which induces the expression of cycloxygenase-2 and the synthesis of PGE2 (Tong et al., 2006). […]
Numbers only.

> print(dat)
                                   molecule  observed
1  O=C(Nc1cncc(-n2ccc3cc(C(=O)N4CCC(F)(F)CC4)cnc32)c1)C1CCCC1 [Compound B-234]      4.01
2  O=C(c1cnc2c(ccn2-c2ccc(N3C(=O)CCC3=O)cc2)c1)N1CCC(F)(F)CC1 [Compound B-106]      0.81

// batch mode: one PGE2 - HTRF over IL-β induction at 0.01 μM value per listed entry
1. CCOC(=O)Nc1cc(-n2ccc3cc(C(=O)N4CCC(F)(F)CC4)cnc32)cnc1C [Compound B-96]
2. O=C(c1cnc2c(ccn2-c2ccc(-c3nnc(C4CC4)[nH]3)cc2)c1)N1CCC(F)(F)CC1 [Compound B-72]
3. O=C(c1cnc2c(ccn2-c2ccc(-n3cnnc3)cc2)c1)N1CCC(F)(F)CC1 [Compound B-107]
4. C[C@H]1CCCN(C(=O)c2cnc3c(ccn3-c3ccc4nc(N(C)C)nn4c3)c2)C1 [Compound B-108]
5. O=C(c1cnc2c(ccn2-c2cccc(-c3nc[nH]n3)c2)c1)N1CCC(F)(F)CC1 [Compound B-36]
6. O=C(c1cnc2c(ccn2-c2ccc3nc(N4CCOCC4)nn3c2)c1)N1CCC(F)(F)CC1 [Compound B-97]
7. O=C(O)c1ccc(-n2ccc3cc(C(=O)N4CCC(F)(F)CC4)cnc32)s1 [Compound B-118]
8. COC(=O)Nc1cncc(-n2ccc3cc(C(=O)N4CCCC(C(F)(F)F)C4)cnc32)c1 (stereo not shown) [Compound B-84]

A.
1. 1.54
2. 3.03
3. 1.31
4. 2.98
5. 4.16
6. 2.42
7. 1.55
8. 3.38

// batch mode: one PGE2 - HTRF over IL-β induction at 0.01 μM value per listed entry
1. CN(C)c1nc2ccc(-n3ccc4cc(C(=O)N5CCC(F)(F)CC5)cnc43)cn2n1 [Compound B-102]
2. CCC1CCCN(C(=O)c2cnc3c(ccn3-c3ccc(N4CCOC4=O)nc3)c2)C1 (stereo not shown) [Compound B-113]
3. O=C(Nc1cncc(-n2ccc3cc(C(=O)N4CCC(F)(F)CC4)cnc32)c1)C1CCOCC1 [Compound B-232]
4. CC(C)OC(=O)Nc1cncc(-n2ccc3cc(C(=O)N4CCC(F)(F)CC4)cnc32)c1 [Compound B-88]
5. C[C@H]1CCCN(C(=O)c2cnc3c(ccn3-c3cnn(CC(F)(F)F)c3)c2)C1 [Compound B-100]
6. O=C(Nc1cncc(-n2ccc3cc(C(=O)N4CCC(F)(F)CC4)cnc32)c1)C1CCC1 [Compound B-236]

A.
1: 1.08; 2: 3.06; 3: 1.02; 4: 3.77; 5: 1.78; 6: 3.57

From: patent US20240294519A1
